# system-tested: Phosphatidylinositol 3-kinase catalytic subunit type 3 (Homo sapiens, UniProt Q8NEB9)
# Sequence (Q8NEB9 whole entry, the tested form may be a part): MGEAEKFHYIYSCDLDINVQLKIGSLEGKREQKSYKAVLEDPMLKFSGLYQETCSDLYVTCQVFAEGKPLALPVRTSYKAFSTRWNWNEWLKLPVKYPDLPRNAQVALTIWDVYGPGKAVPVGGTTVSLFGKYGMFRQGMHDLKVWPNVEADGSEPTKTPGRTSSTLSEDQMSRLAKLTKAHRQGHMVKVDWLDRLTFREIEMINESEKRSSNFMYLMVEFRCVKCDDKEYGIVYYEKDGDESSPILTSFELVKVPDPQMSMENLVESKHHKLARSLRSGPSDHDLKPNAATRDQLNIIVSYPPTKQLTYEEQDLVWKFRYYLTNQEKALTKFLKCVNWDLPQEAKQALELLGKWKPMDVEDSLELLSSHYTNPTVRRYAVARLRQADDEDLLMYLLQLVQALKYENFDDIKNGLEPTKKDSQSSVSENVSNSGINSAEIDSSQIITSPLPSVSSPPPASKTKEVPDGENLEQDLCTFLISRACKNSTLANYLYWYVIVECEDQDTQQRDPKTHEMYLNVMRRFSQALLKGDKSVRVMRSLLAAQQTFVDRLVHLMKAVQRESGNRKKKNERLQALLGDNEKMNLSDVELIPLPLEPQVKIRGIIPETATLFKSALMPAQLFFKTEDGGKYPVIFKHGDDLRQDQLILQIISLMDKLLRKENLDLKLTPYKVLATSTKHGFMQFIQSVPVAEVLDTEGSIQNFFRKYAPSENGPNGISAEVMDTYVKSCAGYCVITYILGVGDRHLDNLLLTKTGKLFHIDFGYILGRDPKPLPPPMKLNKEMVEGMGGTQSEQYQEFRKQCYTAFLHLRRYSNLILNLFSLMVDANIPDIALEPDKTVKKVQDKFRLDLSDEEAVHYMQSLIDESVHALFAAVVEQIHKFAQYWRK
# assay-text: Binding affinity to wild-type human partial length PIK3C3 (S282 to H879 residues) expressed in mammalian expression system at 10 uM by Kinomescan method relative to control
assay-endpoint: Kd
Record the result as a number with its unit.

Bench note: what Kd did c1ccc2sc(-c3cnn4cccnc34)nc2c1 show?
410 nM

----------
Quick reference: pEC50 of the listed items.
# System: MCF7
# assay-text: Antimitotic activity against human MCF7 cells by ATP lite luminescence assay
# Type: functional, cell-based
// returns pEC50 (minus log10 of molar concentration), number only

Answered cases to consult:
Fc1ccccc1-c1cnn2cc(-c3ccc(OCCN4CCCCC4)cc3)cnc12 5.55
Fc1ccc(-c2cnn3cc(-c4ccc(OCCN5CCCCC5)cc4)cnc23)cc1 5.44
c1cc(-c2cnn3cc(-c4ccc(OCCN5CCCCC5)cc4)cnc23)ccn1 5.31
Fc1cccc(-c2cnn3cc(-c4ccc(OCCN5CCCCC5)cc4)cnc23)c1F 5.37
Fc1cccc(-c2cnn3cc(-c4ccc(OCCN5CCCCC5)cc4)cnc23)c1 5.66

Next molecule, pEC50 to be filled in.
Need pEC50 of FC(F)(F)c1ccc(-c2cnn3cc(-c4ccc(OCCN5CCCCC5)cc4)cnc23)cc1 , thanks.
5.80
